Species on record: Rattus norvegicus
Assay: Tested for release of glutamic pyruvic transaminase (GPT) from CCl4 induced toxicity in primary cultures of rat hepatocytes at 0.1 uM concentration
Format: functional, Hepatocyte
measurement_kind: Relative protection

structure_smiles_string: COCc1ccc(C=O)n1CCCC(=O)O
measurement_kind: Relative protection
recorded_result: 65.8%

structure_smiles_string: COCc1ccc(C=O)n1CCCC(=O)OC
measurement_kind: Relative protection
recorded_result: 38.5%

structure_smiles_string: O=Cc1ccc(CO)n1CCCC(=O)O
measurement_kind: Relative protection
recorded_result: 64.4%

structure_smiles_string: COC(=O)CCCn1c(C=O)ccc1CO
measurement_kind: Relative protection
recorded_result: 30.8%

Cited source for all entries: ChEMBL document CHEMBL1136365
